Data credit: BindingDB's records for doi:10.1021/jm000271k

target: Cyclin-dependent kinase 4/G1/S-specific cyclin-D1 [L188C] (Homo sapiens); assay: CDKs Assay; details: pH 7.4; 25 °C
pIC50: −log10 of the molar value.
quantity-kind: pIC50

- CCn1c(=O)ccc2cnc(Nc3ccc(F)cc3)nc21: 5.91
- CCn1c(=O)ccc2cnc(Nc3cccc(OC(F)(F)C(F)F)c3)nc21: 5.11
- CCn1c(=O)ccc2cnc(NC3CCCCC3)nc21: 5.48

a: CCNc1ncc2ccc(=O)n(CC)c2n1
b: CCn1c(=O)ccc2cnc(NC(C)(C)C)nc21
c: CCn1c(=O)ccc2cnc(Nc3cccc(F)c3)nc21
Task: Sort the 3 compounds by pIC50; largest first, smallest last. When ranking, write the labels in the order the request describes.
Result: c, b, a
(c: 5.85, b: 5.28, a: 4.92)

a: CCn1c(=O)ccc2cnc(Nc3ccc(OC)cc3)nc21
b: CCN(CC)CCOc1ccc(Nc2ncc3ccc(=O)n(CC)c3n2)cc1
Task: pIC50 comparison. Which is larger, a or b ? To answer, give the label that identifies your chosen option.
Result: b
